# System: Fusobacterium varium
# TEST_DETAILS: Antimicrobial activity against Fusobacterium varium after 48 hrs by agar dilution method
# Format: functional
I'd appreciate it if you could supply MIC values for the items below.
Write the value in µg/mL as a bare number.

*Q* // query MIC value for entry O=C(N[C@H](CO)[C@H](O)c1ccc([N+](=O)[O-])cc1)C(Cl)Cl
*A* 0.13

*Q* // query MIC value for entry C[C@@H](O)[C@H]1C(=O)N2C(C(=O)O)=C(SCCNC=N)C[C@H]12 [IMIPENEM ANHYDROUS]
*A* 0.02

*Q* // query MIC value for entry CO[C@@]1(NC(=O)C2SC(=C(C(N)=O)C(=O)O)S2)C(=O)N2C(C(=O)O)=C(CSc3nnnn3C)CS[C@@H]21 (stereo partly drawn)
*A* 0.06

*Q* // query MIC value for entry CO[C@@]1(NC(=O)Cc2cccs2)C(=O)N2C(C(=O)O)=C(COC(N)=O)CS[C@@H]21
*A* 0.06

*Q* // query MIC value for entry Cc1ncc([N+](=O)[O-])n1CCO
*A* 0.13

*Q* // query MIC value for entry CCC[C@@H]1C[C@@H](C(=O)N[C@@H]([C@H]2O[C@H](SC)[C@H](O)[C@@H](O)[C@H]2O)[C@H](C)Cl)N(C)C1
*A* 0.06

*Q* // query MIC value for entry C[C@@H](O)[C@H]1C(=O)N2C(C(=O)O)=C(S[C@@H]3CN[C@H](C(=O)N(C)C)C3)[C@H](C)[C@H]12
*A* 0.008

*Q* // query MIC value for entry CCN1CCN(C(=O)N[C@@H](C(=O)N[C@@H]2C(=O)N3[C@@H]2SC(C)(C)[C@@H]3C(=O)O)c2ccccc2)C(=O)C1=O
*A* 0.06

====

I'd appreciate it if you could supply MIC50 values for the items below.
# Tested on: Prevotella bivia
# TEST_DETAILS: Antimicrobial activity against Prevotella bivia after 48 hrs by agar dilution method
# Assay type: functional

*Q* // query MIC50 value for entry C[C@@H](O)[C@H]1C(=O)N2C(C(=O)O)=C(SCCNC=N)C[C@H]12 [IMIPENEM ANHYDROUS]
*A* 0.06 µg/mL

*Q* // query MIC50 value for entry CCC[C@@H]1C[C@@H](C(=O)N[C@@H]([C@H]2O[C@H](SC)[C@H](O)[C@@H](O)[C@H]2O)[C@H](C)Cl)N(C)C1
*A* ≤ 0.06 µg/mL

*Q* // query MIC50 value for entry O=C(N[C@H](CO)[C@H](O)c1ccc([N+](=O)[O-])cc1)C(Cl)Cl
*A* 4 µg/mL

*Q* // query MIC50 value for entry CCN1CCN(C(=O)N[C@@H](C(=O)N[C@@H]2C(=O)N3[C@@H]2SC(C)(C)[C@@H]3C(=O)O)c2ccccc2)C(=O)C1=O
*A* 16 µg/mL

*Q* // query MIC50 value for entry CO[C@@]1(NC(=O)C2SC(=C(C(N)=O)C(=O)O)S2)C(=O)N2C(C(=O)O)=C(CSc3nnnn3C)CS[C@@H]21 (stereo partly drawn)
*A* 4 µg/mL

*Q* // query MIC50 value for entry Cc1ncc([N+](=O)[O-])n1CCO
*A* 4 µg/mL

*Q* // query MIC50 value for entry C[C@@H](O)[C@H]1C(=O)N2C(C(=O)O)=C(S[C@@H]3CN[C@H](C(=O)N(C)C)C3)[C@H](C)[C@H]12
*A* 0.125 µg/mL

*Q* // query MIC50 value for entry CO[C@@]1(NC(=O)Cc2cccs2)C(=O)N2C(C(=O)O)=C(COC(N)=O)CS[C@@H]21
*A* 1 µg/mL
